- target: T1, (M)PPPLx4 (GATAD2A residues 177-284, four polyproline-leucine motifs) (UniProt Q86YP4 177-284)
- T1 sequence (looked up): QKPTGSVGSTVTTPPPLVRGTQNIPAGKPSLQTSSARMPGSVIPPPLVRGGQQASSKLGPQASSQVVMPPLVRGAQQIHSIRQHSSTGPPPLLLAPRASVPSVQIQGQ
- assayProtocol: ITC
recordedEndpoint: Kd (µM)
Numbers only, in µM.

Task item: Which Kd value is on record for DSSESCWNCGRKASETCSGCNAARYCGSFCQHRDWEKHHHVCGQSLQ (domain or fragment, UniProt O75081 551-597, looked up) [ETO2-NHR4 (NHR4 domain of human ETO2, residues 551-597)] ?
Reply: 30

Cited source for all entries: paper PMC12107431
